Biological target: T1, LIN7C, Q9NUP9
T1 sequence (Q9NUP9 88-185, limits assumed, looked up): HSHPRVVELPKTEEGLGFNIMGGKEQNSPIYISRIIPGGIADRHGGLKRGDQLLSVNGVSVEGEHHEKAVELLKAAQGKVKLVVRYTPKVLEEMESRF
Test: holdup assay
Set-up: key: below the threshold = too weak to quantify, mostly under pKd 3.1 to 4
Conditions: plain residues with an end cap or a label only (N-terminal biotin on a linker: ado-ado)
reported.endpoint: pKd

• PDSYHRRDFW [U2AF2, P26368] = below the threshold
• SKQFDKNAYV [CLDN10, P78369] = below the threshold
• FHSIKQSTAV [CRHR1, P34998] = below the threshold
• PAALPESTHM [SLC9A3, P48764] = below the threshold
• EPAKETTTNV [SLC2A3, P11169] = 4.05

Input line: Entry VKQYADVEGF [HNRNPK, P61978;P61978-2] has what pKd?
Output line: 4.03

Input line: Here is the next binder: QQGLLPHSSC [TYRO3, Q06418]
Output line: 3.95

Input line: What about SQPLLVHDDV [KIT, P10721] ?
Output line: below the threshold

Ref: paper PMC9482650
